target under test: mutant G2019S LRRK2 (Homo sapiens, UniProt Q5S007, G2019S)
Sequence (Q5S007 970-2527 G2019S limits assumed): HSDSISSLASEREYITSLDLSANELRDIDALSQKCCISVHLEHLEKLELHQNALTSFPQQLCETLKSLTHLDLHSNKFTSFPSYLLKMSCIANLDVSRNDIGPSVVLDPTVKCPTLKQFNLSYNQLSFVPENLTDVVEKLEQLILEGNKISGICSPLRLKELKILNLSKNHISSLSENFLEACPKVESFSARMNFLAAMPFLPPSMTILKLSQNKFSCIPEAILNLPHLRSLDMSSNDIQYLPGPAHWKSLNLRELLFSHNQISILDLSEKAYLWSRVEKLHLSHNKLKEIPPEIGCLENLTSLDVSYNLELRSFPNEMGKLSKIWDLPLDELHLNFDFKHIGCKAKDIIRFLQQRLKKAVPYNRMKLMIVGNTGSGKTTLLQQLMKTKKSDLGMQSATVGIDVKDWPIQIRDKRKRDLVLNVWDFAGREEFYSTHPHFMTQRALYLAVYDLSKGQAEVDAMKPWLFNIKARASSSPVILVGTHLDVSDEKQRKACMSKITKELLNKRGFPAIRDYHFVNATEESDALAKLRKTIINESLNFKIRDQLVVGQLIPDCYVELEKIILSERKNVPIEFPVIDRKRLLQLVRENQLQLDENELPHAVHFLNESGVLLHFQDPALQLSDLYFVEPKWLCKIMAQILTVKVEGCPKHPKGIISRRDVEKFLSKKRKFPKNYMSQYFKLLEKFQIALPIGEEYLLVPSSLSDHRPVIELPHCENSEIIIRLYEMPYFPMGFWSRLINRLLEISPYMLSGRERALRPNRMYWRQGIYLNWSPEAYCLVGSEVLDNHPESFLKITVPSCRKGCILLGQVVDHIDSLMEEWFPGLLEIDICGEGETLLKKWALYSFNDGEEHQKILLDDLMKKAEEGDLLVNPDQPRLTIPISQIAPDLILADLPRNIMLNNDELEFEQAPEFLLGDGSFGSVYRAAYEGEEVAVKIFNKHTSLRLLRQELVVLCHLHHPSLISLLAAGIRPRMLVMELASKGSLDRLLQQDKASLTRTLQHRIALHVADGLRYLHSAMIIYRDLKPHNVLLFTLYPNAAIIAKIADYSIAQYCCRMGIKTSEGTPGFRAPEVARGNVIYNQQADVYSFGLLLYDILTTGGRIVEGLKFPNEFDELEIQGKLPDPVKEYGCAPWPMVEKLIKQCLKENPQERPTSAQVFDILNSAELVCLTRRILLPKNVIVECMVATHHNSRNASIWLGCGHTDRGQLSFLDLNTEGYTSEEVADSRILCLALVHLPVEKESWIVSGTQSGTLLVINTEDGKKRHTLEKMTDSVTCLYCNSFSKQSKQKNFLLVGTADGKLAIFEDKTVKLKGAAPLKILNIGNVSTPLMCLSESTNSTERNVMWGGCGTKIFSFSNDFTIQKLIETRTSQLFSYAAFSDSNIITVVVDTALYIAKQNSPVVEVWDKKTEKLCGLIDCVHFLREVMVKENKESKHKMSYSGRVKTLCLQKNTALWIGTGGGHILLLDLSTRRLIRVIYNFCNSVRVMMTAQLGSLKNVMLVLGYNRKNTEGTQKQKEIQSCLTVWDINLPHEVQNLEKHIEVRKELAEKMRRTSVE
protocol text: LRRK2 Assay, Format 2 (Lantha Screen), G2019S mutant
Assay type: biochemical
Design: purchased Invitrogen PV4881
condition context: geometric mean of 2-4 determinations unless otherwise indicated (a: >=5; b: single determination); read-out: LRRK2, Format 2 G2019S IC50
Protocol: LRRK2 kinase activity was measured using Lantha Screen technology from Invitrogen. […] Upon completion, the assay was stopped and detected with a terbium labeled anti-phospho-ERM antibody (Invitrogen, cat # PR8975A). […] After an incubation of 1 hour at room temperature, the plate was read on an Envision with an excitation wavelength of 340 nm and a reading emission at both 520 nm and 495 nm. […] Inhibition of mutant G2019S LRRK2 (Invitrogen cat # PV4881) was measured in the exact same method. […]
Counter-ions that a name gives are not always drawn.
observable: IC50 (nM)

Sample answers from the record:
- compound: "Cc1cn(Cc2nc3cnc4ccc(Cl)cc4c3n2[C@H]2CC[C@@H](F)C2)nn1 (single isomer, unassigned) [Example 93]"
  IC50 (nM): 8.18
- compound: "C[C@@H]1C[C@H](n2c(C(F)c3ccon3)nc3cnc4ccc(Cl)cc4c32)CCO1 (single isomer, unassigned) [Example 237]"
  IC50 (nM): 3.92
- compound: "Cc1nc(Cc2nc3cnc4ccc(C#N)cc4c3n2[C@@H]2CCO[C@H](C)C2)c(C)o1 [Example 230, formate salt]"
  IC50 (nM): 8.48
- compound: "Cc1cc(Cc2nc3cnc4ccc(C#N)cc4c3n2C2CCOC(C)(C)C2)no1 (stereo not shown) [Example 239, formate salt]"
  IC50 (nM): 10.8
- compound: "C[C@@H]1C[C@H](n2c(Cn3cncn3)nc3cnc4ccc(C#N)cc4c32)CCO1 [Example 120, formate salt]"
  IC50 (nM): 5.07

[P] C[C@@H]1C[C@H](n2c(Cc3cn4ccccc4n3)nc3cnc4ccc(C#N)cc4c32)CCO1 [Example 158, formate salt]
[Q] C[C@@H]1C[C@H](n2c(Cc3ccncn3)nc3cnc4ccc(C#N)cc4c32)CCO1
For the pair P and Q , which member has the lower IC50 number? Label of pick, please. P
